# tested_target: AChE (Homo sapiens)
# experimental_details: biochemical
# setup_conditions: 10^–3 M
Documented inhibition at 1000 µM across a set of compounds
Express the reported value numerically, then name its unit.

Reference set, count: 3
compound_structure: CCN(CC)CCN(CC)CC(=O)Nc1ccc(/C=C2\Cc3cc(OC)c(OC)cc3C2=O)cc1
inhibition at 1000 µM: 99.8%
--
compound_structure: C#CCN(C)CC(=O)Nc1ccc(/C=C2\Cc3cc(OC)c(OC)cc3C2=O)cc1
inhibition at 1000 µM: 52.4%
--
compound_structure: COc1ccc2c(c1)C/C(=C\c1ccc(NC(=O)CN3CCN(CCCO)CC3)cc1)C2=O
inhibition at 1000 µM: 95.2%

Lab note: next compound to report on.
Query: Form: Entry = COc1ccc2c(c1)C(=O)/C(=C/c1ccc(NC(=O)CN3CCN(CCCN(C)C)CC3)cc1)C2 | System = AChE (Homo sapiens) | inhibition at 1000 µM = ____
Response: 93.3%

---

# tested_target: BChE (Homo sapiens)
# Sequence (P06276 29-602): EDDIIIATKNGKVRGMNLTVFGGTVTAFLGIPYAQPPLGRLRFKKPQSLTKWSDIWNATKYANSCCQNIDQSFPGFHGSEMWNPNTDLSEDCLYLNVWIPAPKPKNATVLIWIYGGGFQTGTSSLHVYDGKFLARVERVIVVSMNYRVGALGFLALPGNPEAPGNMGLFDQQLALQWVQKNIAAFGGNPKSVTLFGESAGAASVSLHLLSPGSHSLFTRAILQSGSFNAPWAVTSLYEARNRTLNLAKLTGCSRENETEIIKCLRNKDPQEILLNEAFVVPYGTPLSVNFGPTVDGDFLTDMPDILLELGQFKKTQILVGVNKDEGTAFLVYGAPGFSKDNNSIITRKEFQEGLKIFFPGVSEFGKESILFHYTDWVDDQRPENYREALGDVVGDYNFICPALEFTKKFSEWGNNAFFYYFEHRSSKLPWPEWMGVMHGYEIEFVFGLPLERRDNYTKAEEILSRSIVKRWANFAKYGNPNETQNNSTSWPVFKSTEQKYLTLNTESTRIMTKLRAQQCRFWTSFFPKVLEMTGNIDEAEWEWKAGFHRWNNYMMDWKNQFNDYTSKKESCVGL
# experimental_details: biochemical
# setup_conditions: 10^–3 M
# Method: According to the modified Ellman approach outlined in our team’s earlier work, the AChE and BChE inhibitory activities of the obtained compounds were evaluated.[18]−[21]
Documented inhibition at 1000 µM across a set of molecules
Please give a number only; it is taken to be in %.

Reference set, count: 5
molecule: COCCN1CCN(CC(=O)Nc2ccc(/C=C3\Cc4ccc(OC)cc4C3=O)cc2)CC1
inhibition at 1000 µM [%]: 73.7

molecule: COc1cc2c(cc1OC)C(=O)/C(=C/c1ccc(NC(=O)CN3CCN(C)CC3)cc1)C2
inhibition at 1000 µM [%]: 98.1

molecule: COc1ccc2c(c1)C(=O)/C(=C/c1ccc(NC(=O)CN(C)CCCN(C)C)cc1)C2
inhibition at 1000 µM [%]: 93.3

molecule: CCCN(C)CC(=O)Nc1ccc(/C=C2\Cc3ccc(OC)cc3C2=O)cc1
inhibition at 1000 µM [%]: 61.1

molecule: CCN(CC)CCN(CC)CC(=O)Nc1ccc(/C=C2\Cc3cc(OC)c(OC)cc3C2=O)cc1
inhibition at 1000 µM [%]: 99.4

Query: Look up inhibition at 1000 µM for this molecule: COc1cc2c(cc1OC)C(=O)/C(=C/c1ccc(NC(=O)CN(C)CCN(C)C)cc1)C2
Response: 100

Query: Try the molecule C#CCN(C)CC(=O)Nc1ccc(/C=C2\Cc3cc(OC)c(OC)cc3C2=O)cc1
Response: 99

Query: Try the molecule CCN1CCN(CC(=O)Nc2ccc(/C=C3\Cc4cc(OC)c(OC)cc4C3=O)cc2)CC1
Response: 96.5

Query: Try the molecule CCN1CCN(CC(=O)Nc2ccc(/C=C3\Cc4cc(OC)ccc4C3=O)cc2)CC1
Response: 92.9

Query: Try the molecule C#CCN1CCN(CC(=O)Nc2ccc(/C=C3\Cc4ccc(OC)cc4C3=O)cc2)CC1
Response: 91.7

Query: Try the molecule COc1ccc2c(c1)C/C(=C\c1ccc(NC(=O)CN(C)CCN(C)C)cc1)C2=O
Response: 91.6

Query: Try the molecule CCCN(C)CC(=O)Nc1ccc(/C=C2\Cc3cc(OC)c(OC)cc3C2=O)cc1
Response: 99.6

Query: Try the molecule COc1ccc2c(c1)C(=O)/C(=C/c1ccc(NC(=O)CN3CCN(CCCN(C)C)CC3)cc1)C2
Response: 56.2

Query: Try the molecule COc1ccc2c(c1)C(=O)/C(=C/c1ccc(NC(=O)CN3CCN(CCO)CC3)cc1)C2
Response: 75.5

---

# tested_target: UniProtKB P06276
quantity: Ki (nM)
Please give a number only; it is taken to be in nM.

Query: Look up Ki for this compound: COc1cc2c(cc1OC)C(=O)/C(=C/c1ccc(NC(=O)CN(C)CCCN(C)C)cc1)C2
Response: 61.7

---

Here we list compounds with their recorded pIC50 when tested on MAO-B (Homo sapiens, UniProt P27338).
Sequence (P27338 whole entry): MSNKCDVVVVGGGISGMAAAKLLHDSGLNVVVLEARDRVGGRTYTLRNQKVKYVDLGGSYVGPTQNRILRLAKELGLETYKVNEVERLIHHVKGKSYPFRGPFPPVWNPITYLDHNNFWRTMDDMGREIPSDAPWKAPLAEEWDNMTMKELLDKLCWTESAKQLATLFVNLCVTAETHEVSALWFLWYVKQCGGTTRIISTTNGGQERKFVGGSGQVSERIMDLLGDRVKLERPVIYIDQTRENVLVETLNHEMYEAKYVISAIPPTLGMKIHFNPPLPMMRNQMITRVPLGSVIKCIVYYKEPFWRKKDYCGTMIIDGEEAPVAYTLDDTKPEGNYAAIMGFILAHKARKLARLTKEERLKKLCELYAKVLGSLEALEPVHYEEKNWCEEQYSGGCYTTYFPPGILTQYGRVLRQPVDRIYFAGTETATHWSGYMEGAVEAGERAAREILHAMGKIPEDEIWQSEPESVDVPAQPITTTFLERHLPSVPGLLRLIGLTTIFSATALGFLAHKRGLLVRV
On this scale, pIC50 is minus log10 of a concentration expressed in M (mol/L).

Reference set, count: 5
compound_structure: COc1ccc2c(c1)C/C(=C\c1ccc(NC(=O)CN(C)CCCN(C)C)cc1)C2=O
tested_target: MAO-B (Homo sapiens, UniProt P27338)
pIC50: 7.51
--
compound_structure: C#CCN(C)CC(=O)Nc1ccc(/C=C2\Cc3cc(OC)ccc3C2=O)cc1
tested_target: MAO-B (Homo sapiens, UniProt P27338)
pIC50: 7.21
--
compound_structure: CCN(CC)CCN(CC)CC(=O)Nc1ccc(/C=C2\Cc3cc(OC)ccc3C2=O)cc1
tested_target: MAO-B (Homo sapiens, UniProt P27338)
pIC50: 6.69
--
compound_structure: C#CCN(C)CC(=O)Nc1ccc(/C=C2\Cc3ccc(OC)cc3C2=O)cc1
tested_target: MAO-B (Homo sapiens, UniProt P27338)
pIC50: 7.18
--
compound_structure: CCN(CC)CCN(CC)CC(=O)Nc1ccc(/C=C2\Cc3ccc(OC)cc3C2=O)cc1
tested_target: MAO-B (Homo sapiens, UniProt P27338)
pIC50: 6.68

Query: Look up pIC50 for this compound: COc1cc2c(cc1OC)C(=O)/C(=C/c1ccc(NC(=O)CN(C)CCCN(C)C)cc1)C2
Response: 7.41

Query: Try the compound COc1ccc2c(c1)C(=O)/C(=C/c1ccc(NC(=O)CN(C)CCCN(C)C)cc1)C2
Response: 7.44

---

# tested_target: MAO-B (Homo sapiens)
# experimental_details: In vitro MAO-B inhibition assay (fluorometric)
# Type: biochemical
# setup_conditions: 10^–8 M
quantity: inhibition at 0.01 µM (%)
Please give a number only; it is taken to be in %.

Query: Form: Entry = CCCN(C)CC(=O)Nc1ccc(/C=C2\Cc3cc(OC)ccc3C2=O)cc1 [D28] | System = MAO-B (Homo sapiens) | inhibition at 0.01 µM = ____
Response: 41.5

Query: Try the compound COc1ccc2c(c1)C(=O)/C(=C/c1ccc(NC(=O)CN(C)CCCN(C)C)cc1)C2 [D38]
Response: 42.3

Query: Try the compound CCCN(C)CC(=O)Nc1ccc(/C=C2\Cc3ccc(OC)cc3C2=O)cc1 [D29]
Response: 40.3

Query: Try the compound C#CCN(C)CC(=O)Nc1ccc(/C=C2\Cc3cc(OC)ccc3C2=O)cc1 [D31]
Response: 35.5

Query: Try the compound COc1ccc2c(c1)C/C(=C\c1ccc(NC(=O)CN(C)CCCN(C)C)cc1)C2=O [D37]
Response: 40.1

---

Documented inhibition at 0.1 µM across a set of compounds
# tested_target: UniProt:P22303
# experimental_details: biochemical
# setup_conditions: 10^–7 M
# Description: According to the modified Ellman approach outlined in our team’s earlier work, the AChE and BChE inhibitory activities of the obtained compounds were evaluated.[18]−[21]
Please give a number only; it is taken to be in %.

compound_structure: COc1ccc2c(c1)C/C(=C\c1ccc(NC(=O)CN3CCN(CCCO)CC3)cc1)C2=O
inhibition at 0.1 µM [%]: 70.7

compound_structure: COc1ccc2c(c1)C(=O)/C(=C/c1ccc(NC(=O)CN3CCN(CCN(C)C)CC3)cc1)C2
inhibition at 0.1 µM [%]: 68.9

compound_structure: COc1cc2c(cc1OC)C(=O)/C(=C/c1ccc(NC(=O)CN(C)CCCN(C)C)cc1)C2
inhibition at 0.1 µM [%]: 64.3

compound_structure: COc1ccc2c(c1)C(=O)/C(=C/c1ccc(NC(=O)CN3CCN(CCCN(C)C)CC3)cc1)C2
inhibition at 0.1 µM [%]: 40.3

compound_structure: CCCN(C)CC(=O)Nc1ccc(/C=C2\Cc3cc(OC)c(OC)cc3C2=O)cc1
inhibition at 0.1 µM [%]: 74.3

compound_structure: CCCN(C)CC(=O)Nc1ccc(/C=C2\Cc3ccc(OC)cc3C2=O)cc1
inhibition at 0.1 µM [%]: 75.6

Query: Look up inhibition at 0.1 µM for this compound: COc1ccc2c(c1)C/C(=C\c1ccc(NC(=O)CN3CCN(CCCN(C)C)CC3)cc1)C2=O
Response: 43.2

Query: Try the compound COc1ccc2c(c1)C(=O)/C(=C/c1ccc(NC(=O)CN(C)CCCN(C)C)cc1)C2
Response: 68.2

---

# tested_target: AChE (Homo sapiens, UniProt P22303)
# Sequence (P22303 32-614): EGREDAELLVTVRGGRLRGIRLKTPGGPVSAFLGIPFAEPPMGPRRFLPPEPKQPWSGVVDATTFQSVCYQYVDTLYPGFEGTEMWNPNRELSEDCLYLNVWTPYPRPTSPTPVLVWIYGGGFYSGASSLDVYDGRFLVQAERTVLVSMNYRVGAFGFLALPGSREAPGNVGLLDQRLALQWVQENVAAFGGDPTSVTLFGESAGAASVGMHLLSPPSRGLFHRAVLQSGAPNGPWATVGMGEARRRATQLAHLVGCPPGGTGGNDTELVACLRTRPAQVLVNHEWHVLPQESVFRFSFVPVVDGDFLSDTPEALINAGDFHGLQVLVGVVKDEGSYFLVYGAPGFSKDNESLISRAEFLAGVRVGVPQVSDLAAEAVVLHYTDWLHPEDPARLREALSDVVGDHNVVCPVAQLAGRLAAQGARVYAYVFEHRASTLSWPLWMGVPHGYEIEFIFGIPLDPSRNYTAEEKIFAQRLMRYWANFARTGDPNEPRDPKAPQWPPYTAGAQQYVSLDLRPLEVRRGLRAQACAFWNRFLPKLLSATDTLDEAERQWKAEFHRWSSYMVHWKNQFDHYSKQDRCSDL
# experimental_details: biochemical
# setup_conditions: 10^–4 M
Documented inhibition at 100 µM across a set of molecules
Express the reported value numerically, then name its unit.

Reference set, count: 5
molecule: COc1cc2c(cc1OC)C(=O)/C(=C/c1ccc(NC(=O)CN(C)CCN(C)C)cc1)C2
quantity: inhibition at 100 µM
endpoint_result: 86.6%
--
molecule: COc1ccc2c(c1)C(=O)/C(=C/c1ccc(NC(=O)CN3CCN(CCN(C)C)CC3)cc1)C2
quantity: inhibition at 100 µM
endpoint_result: 87.6%
--
molecule: CCN(CC)CCN(CC)CC(=O)Nc1ccc(/C=C2\Cc3ccc(OC)cc3C2=O)cc1
quantity: inhibition at 100 µM
endpoint_result: 36.6%
--
molecule: COc1ccc2c(c1)C(=O)/C(=C/c1ccc(NC(=O)CN3CCN(C)CC3)cc1)C2 [D2]
quantity: inhibition at 100 µM
endpoint_result: 42.9%
--
molecule: COCCN1CCN(CC(=O)Nc2ccc(/C=C3\Cc4cc(OC)c(OC)cc4C3=O)cc2)CC1
quantity: inhibition at 100 µM
endpoint_result: 43.4%

Lab note: next molecule to report on.
Query: Look up inhibition at 100 µM for this molecule: CCCN(C)CC(=O)Nc1ccc(/C=C2\Cc3cc(OC)c(OC)cc3C2=O)cc1
Response: 96.6%
